Target: T1, IRP1 (iron regulatory protein 1) (rabbit, UniProt Q01059 1-889)
T1 sequence: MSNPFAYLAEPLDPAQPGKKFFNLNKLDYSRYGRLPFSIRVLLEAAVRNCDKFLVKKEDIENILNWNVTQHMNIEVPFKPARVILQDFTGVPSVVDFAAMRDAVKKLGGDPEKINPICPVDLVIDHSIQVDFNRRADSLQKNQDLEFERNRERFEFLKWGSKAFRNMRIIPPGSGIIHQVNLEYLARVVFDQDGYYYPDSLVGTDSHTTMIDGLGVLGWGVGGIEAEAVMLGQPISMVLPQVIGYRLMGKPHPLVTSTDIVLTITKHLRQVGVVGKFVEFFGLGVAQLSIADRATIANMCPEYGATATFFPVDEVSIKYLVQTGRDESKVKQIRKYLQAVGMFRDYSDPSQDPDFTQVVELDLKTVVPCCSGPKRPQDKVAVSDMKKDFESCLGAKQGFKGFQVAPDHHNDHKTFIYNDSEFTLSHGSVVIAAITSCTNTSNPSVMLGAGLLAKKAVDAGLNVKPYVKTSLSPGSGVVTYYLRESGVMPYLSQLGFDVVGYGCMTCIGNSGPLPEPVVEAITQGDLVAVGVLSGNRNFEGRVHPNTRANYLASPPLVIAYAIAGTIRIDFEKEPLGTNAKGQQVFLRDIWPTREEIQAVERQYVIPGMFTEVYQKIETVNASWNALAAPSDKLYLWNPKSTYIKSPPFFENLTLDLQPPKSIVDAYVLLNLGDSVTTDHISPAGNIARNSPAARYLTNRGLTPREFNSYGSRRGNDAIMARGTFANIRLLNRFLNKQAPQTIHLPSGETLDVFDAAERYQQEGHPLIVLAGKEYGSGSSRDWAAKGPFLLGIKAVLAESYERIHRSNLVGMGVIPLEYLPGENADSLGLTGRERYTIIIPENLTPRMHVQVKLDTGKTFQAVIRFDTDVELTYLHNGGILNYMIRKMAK
Experiment: fluorescence anisotropy; 5 °C, no Mn2+; 40 mM HEPES pH 7.2, 100 mM KCl, 5-30 °C, ±50 µM Mn2+; labeled RNA 50 nM or 100 nM (Methods)
Conditions: protein: recombinant; label: 5' fluorescein; hairpin
Each entry below carries its recorded pKd.
Give only the number. pKd is defined as minus log10 of concentration in molar units.

>  <binder>
CCUCAUCUUUGUCAGUGCACAAAAUGGCG (structured_RNA) [ACO2 IRE-RNA (mitochondrial aconitase IRE)]

>  <measured.endpoint>
pKd

>  <observed>
7.25

$$$$

From here, focus on the item given below.
Ask: Tell me its pKd given GUUCUUGCUUCAACAGUGUUUGAACGGAAC (structured_RNA) [FRT IRE-RNA (ferritin IRE)] as the entry.
Result: 8.34
